Reported pIC50 by item:
Target: human B-Raf protein kinase (Homo sapiens)
Construct: GST (N); 14-420 (Mek1)
Sequence (P15056 416-766): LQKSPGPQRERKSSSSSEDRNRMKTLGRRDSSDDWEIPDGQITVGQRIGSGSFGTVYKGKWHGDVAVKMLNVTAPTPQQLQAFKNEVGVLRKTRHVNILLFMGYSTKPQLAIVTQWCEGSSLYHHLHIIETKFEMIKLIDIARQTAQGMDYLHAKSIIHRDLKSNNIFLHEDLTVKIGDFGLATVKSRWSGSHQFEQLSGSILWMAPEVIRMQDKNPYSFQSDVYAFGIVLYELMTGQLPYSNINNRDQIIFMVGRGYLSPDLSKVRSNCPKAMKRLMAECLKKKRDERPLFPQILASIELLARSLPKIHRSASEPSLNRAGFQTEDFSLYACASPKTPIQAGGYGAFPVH
Test: In vitro B-Raf/Mek1 composite kinase assay
pIC50: −log10 of the molar value.

Past entries and their recorded results:
# Compound String, Tested On, pIC50
rows = [
    ("Cn1cc(-c2cc(Oc3cccc(NC(=O)c4ccc(Cl)c(C(F)(F)F)c4)c3)ccn2)cn1", "human B-Raf protein kinase (Homo sapiens)", "< 5.00"),
    ("Cn1cc(-c2cc(Oc3cccc(NC(=O)c4ccc5occc5c4)c3)ccn2)cn1", "human B-Raf protein kinase (Homo sapiens)", "< 5.00"),
    ("Cn1cc(-c2cc(Oc3cccc(NC(=O)c4ccccc4OC(F)(F)F)c3)ccn2)cn1", "human B-Raf protein kinase (Homo sapiens)", "≥ 5.00"),
    ("CCOc1cc(OCC)cc(C(=O)Nc2cccc(Oc3ccnc(-c4nnco4)c3)c2)c1", "human B-Raf protein kinase (Homo sapiens)", "< 5.00"),
    ("CCCOc1cccc(C(=O)Nc2cccc(Oc3ccnc(-c4cnn(C)c4)c3)c2)c1", "human B-Raf protein kinase (Homo sapiens)", "< 5.00"),
    ("Cn1cc(-c2cc(Oc3cccc(NC(=O)c4ccccc4C(=O)c4ccccc4)c3)ccn2)cn1", "human B-Raf protein kinase (Homo sapiens)", "< 5.00"),
]

pIC50 for "Cn1cc(-c2cc(Oc3cccc(NC(=O)c4ccccc4Oc4ccccc4)c3)ccn2)cn1" ?
≥ 5.00

pIC50 for "Cn1cc(-c2cc(Oc3cccc(NC(=O)c4cccc(-n5ccnc5)c4)c3)ccn2)cn1" ?
< 5.00
